# Target or test system: HLA-B*07:02
# Protocol details: IEDB peptide-MHC binding, purified MHC/direct/fluorescence; filed as Kd, often an IC50 or EC50 that approximates it; bounds were set here for any values at or beyond the usual limits of such assays
# Test settings: source organism: Neisseria gonorrhoeae
pKd: −log10 of the molar value.
Value type: pKd

Recorded pKd (sequence GSDKQVVGQ ): ≤ 4.70

----------
Reported pKd values for the following sequences.
# Target or test system: HLA-B*51:01
# Protocol details: IEDB peptide-MHC binding, purified MHC/competitive/fluorescence; filed as Kd, often an IC50 or EC50 that approximates it; bounds were set here for any values at or beyond the usual limits of such assays
# Test settings: source organism: Homo sapiens
pKd: −log10 of the molar value.

* EVIPYTPAM | ≤ 4.70
* VSDFRKEFY | ≤ 4.70

Now for another entry.
Recorded pKd (sequence VLIRRCHYL ): ≤ 4.70

----------
# Target or test system: HLA-B*27:05
# Protocol details: IEDB peptide-MHC binding, purified MHC/direct/fluorescence; filed as Kd, often an IC50 or EC50 that approximates it; bounds were set here for any values at or beyond the usual limits of such assays
# Test settings: source organism: Cowpox virus
pKd: −log10 of the molar value.
Value type: pKd

Entry YPPPRYITV under HLA-B*27:05 had pKd of ≤ 4.70

----------
# Target or test system: HLA-B*08:01
# Protocol details: IEDB peptide-MHC binding, purified MHC/competitive/fluorescence; filed as Kd, often an IC50 or EC50 that approximates it; bounds were set here for any values at or beyond the usual limits of such assays
# Test settings: source organism: Yersinia pestis Nepal516
Value type: Kd (nM)
Use nM as the unit, but write only the number.

Recorded Kd (sequence MLMAASRAL ): 39.6

----------
# Target or test system: HLA-B*18:01
# Protocol details: IEDB peptide-MHC binding, purified MHC/competitive/fluorescence; filed as Kd, often an IC50 or EC50 that approximates it; bounds were set here for any values at or beyond the usual limits of such assays
# Test settings: source organism: Shigella boydii CDC 3083-94
pKd: −log10 of the molar value.
Value type: pKd

Entry RNNDPTLPY under HLA-B*18:01 had pKd of ≤ 4.70

----------
# Target or test system: HLA-A*30:01
# Protocol details: IEDB peptide-MHC binding, purified MHC/competitive/fluorescence; filed as Kd, often an IC50 or EC50 that approximates it; bounds were set here for any values at or beyond the usual limits of such assays
# Test settings: source organism: Human immunodeficiency virus 1
Value type: Kd

Recorded Kd (sequence EELRSLYNTV ): ≥ 20 µM

----------
# Target or test system: HLA-C*15:02
# Protocol details: IEDB peptide-MHC binding, purified MHC/direct/fluorescence; filed as Kd, often an IC50 or EC50 that approximates it; bounds were set here for any values at or beyond the usual limits of such assays
# Test settings: source organism: Yellow fever virus
Value type: Kd (nM)
Use nM as the unit, but write only the number.

Recorded Kd (sequence AIHPFALLL ): 99

----------
# Target or test system: HLA-A*03:01
# Protocol details: IEDB peptide-MHC binding, purified MHC/direct/fluorescence; filed as Kd, often an IC50 or EC50 that approximates it; bounds were set here for any values at or beyond the usual limits of such assays
# Test settings: source organism: Influenza A virus (A/Hong Kong/507/97(H5N1))
pKd: −log10 of the molar value.
Value type: pKd

Recorded pKd (sequence LAKSVFNSL ): ≤ 4.70
